Listing of entries alongside the reported Rat IR phosphorylation [EC50 nM] mean.
- Target or system: Rat IR (rat, UniProt P15127 27-1383)
- Sequence (P15127 27-1383): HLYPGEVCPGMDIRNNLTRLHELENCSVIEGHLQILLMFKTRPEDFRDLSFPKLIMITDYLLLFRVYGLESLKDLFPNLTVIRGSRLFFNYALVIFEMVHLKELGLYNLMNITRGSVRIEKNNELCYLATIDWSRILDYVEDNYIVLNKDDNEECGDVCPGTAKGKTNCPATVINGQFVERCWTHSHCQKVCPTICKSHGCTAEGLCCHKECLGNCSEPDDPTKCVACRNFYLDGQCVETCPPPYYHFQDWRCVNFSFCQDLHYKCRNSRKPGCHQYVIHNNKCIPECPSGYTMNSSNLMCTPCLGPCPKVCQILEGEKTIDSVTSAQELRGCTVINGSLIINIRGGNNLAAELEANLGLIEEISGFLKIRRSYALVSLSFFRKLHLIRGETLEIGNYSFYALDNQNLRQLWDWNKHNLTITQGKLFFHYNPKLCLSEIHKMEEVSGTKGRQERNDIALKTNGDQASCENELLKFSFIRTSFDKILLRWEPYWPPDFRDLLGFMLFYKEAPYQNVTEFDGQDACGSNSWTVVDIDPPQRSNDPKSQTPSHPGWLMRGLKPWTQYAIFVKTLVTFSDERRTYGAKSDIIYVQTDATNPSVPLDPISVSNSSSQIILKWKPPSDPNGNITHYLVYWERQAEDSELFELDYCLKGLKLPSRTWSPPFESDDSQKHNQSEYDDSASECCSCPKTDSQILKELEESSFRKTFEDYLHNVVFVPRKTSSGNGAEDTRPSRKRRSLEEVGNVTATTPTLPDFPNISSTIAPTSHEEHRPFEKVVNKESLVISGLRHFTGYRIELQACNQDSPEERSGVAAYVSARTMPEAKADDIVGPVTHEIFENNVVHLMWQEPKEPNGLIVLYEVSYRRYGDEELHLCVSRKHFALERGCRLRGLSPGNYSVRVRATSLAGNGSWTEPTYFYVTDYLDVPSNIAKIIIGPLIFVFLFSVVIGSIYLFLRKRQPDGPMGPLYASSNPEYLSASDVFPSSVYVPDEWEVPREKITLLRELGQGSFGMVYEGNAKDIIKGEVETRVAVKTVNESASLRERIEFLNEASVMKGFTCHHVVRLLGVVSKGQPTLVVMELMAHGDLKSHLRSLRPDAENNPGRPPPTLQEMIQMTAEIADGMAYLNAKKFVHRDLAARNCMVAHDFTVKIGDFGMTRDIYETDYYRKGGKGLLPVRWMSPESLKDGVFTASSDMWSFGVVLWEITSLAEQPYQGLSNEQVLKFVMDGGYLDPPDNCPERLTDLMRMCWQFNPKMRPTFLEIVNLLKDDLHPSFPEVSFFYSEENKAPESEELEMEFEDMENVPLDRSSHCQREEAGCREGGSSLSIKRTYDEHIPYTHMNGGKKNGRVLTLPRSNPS
- Assay name: cell-based or functional assay
The response must be a number in nM with no trailing unit.

1. scl-Fc fusion protein INS021 (Fc fusion) SFVNQHLCGSHLVEALELVCGERGFHYTPKTEEYPGDVGIVEQCCTSICSLSQLENYCGGEAEDLQVGQVELGGGPGAGSLQLALEGSLQGGPSVFLFPPKPKDTLMISRTPEVTCVVVDVSHEDPEVKFNWYVDGVEVHNAKTKPREEQYNSTYRVVSVLTVLHQDWLNGKEYKCKVSNKALPAPIEKTISKAKGQPREPQVYTLPPSRDELTKNQVSLTCLVKGFYPSDIAVEWESNGQPENNYKTTPPVLDSDGSFFLYSKLTVDKSRWQQGNVFSCSVMHEALHNHYTQKSLSLSPGGGGGSAESKYGPPCPPCPA	620
2. scl-Fc fusion protein INS015 (Fc fusion) SFVNQHLCGSHLVEALHLVCGERGFHYTPKTEEYPGDVGIVEQCCTSICSLSQLENYCGGEAEDLQVGQVELGGGPGAGSLQPEGSLQGGPSVFLFPPKPKDTLMISRTPEVTCVVVDVSHEDPEVKFNWYVDGVEVHNAKTKPREEQYNSTYRVVSVLTVLHQDWLNGKEYKCKVSNKALPAPIEKTISKAKGQPREPQVYTLPPSRDELTKNQVSLTCLVKGFYPSDIAVEWESNGQPENNYKTTPPVLDSDGSFFLYSKLTVDKSRWQQGNVFSCSVMHEALHNHYTQKSLSLSPGGGGGSAESKYGPPCPPCPA	95.7

I would be grateful if you could share the reported Rat IR phosphorylation [EC50 nM] mean for scl-Fc fusion protein INS008 (Fc fusion) SFVNQHLCGSHLVEALELVCGERGFHYTDKTGSYPGGVGIVEQCCTSICSLEQLENYCGGEAEDLQVGQVELGGGPGAGSLQPEGSLQGGPSVFLFPPKPKDTLMISRTPEVTCVVVDVSHEDPEVKFNWYVDGVEVHNAKTKPREEQYNSTYRVVSVLTVLHQDWLNGKEYKCKVSNKALPAPIEKTISKAKGQPREPQVYTLPPSRDELTKNQVSLTCLVKGFYPSDIAVEWESNGQPENNYKTTPPVLDSDGSFFLYSKLTVDKSRWQQGNVFSCSVMHEALHNHYTQKSLSLSPGGGGGSAESKYGPPCPPCPA .
440
